- TESTED_TARGET: SERCA2a (Sus scrofa)
- Construct: Cardiac SR vesicles were isolated from fresh porcine left ventricular tissue using differential centrifugation; from tissue; host or cells: porcine left ventricular tissue (cardiac SR vesicles)
- Sequence (P11607 1-997 isoform P11607-2): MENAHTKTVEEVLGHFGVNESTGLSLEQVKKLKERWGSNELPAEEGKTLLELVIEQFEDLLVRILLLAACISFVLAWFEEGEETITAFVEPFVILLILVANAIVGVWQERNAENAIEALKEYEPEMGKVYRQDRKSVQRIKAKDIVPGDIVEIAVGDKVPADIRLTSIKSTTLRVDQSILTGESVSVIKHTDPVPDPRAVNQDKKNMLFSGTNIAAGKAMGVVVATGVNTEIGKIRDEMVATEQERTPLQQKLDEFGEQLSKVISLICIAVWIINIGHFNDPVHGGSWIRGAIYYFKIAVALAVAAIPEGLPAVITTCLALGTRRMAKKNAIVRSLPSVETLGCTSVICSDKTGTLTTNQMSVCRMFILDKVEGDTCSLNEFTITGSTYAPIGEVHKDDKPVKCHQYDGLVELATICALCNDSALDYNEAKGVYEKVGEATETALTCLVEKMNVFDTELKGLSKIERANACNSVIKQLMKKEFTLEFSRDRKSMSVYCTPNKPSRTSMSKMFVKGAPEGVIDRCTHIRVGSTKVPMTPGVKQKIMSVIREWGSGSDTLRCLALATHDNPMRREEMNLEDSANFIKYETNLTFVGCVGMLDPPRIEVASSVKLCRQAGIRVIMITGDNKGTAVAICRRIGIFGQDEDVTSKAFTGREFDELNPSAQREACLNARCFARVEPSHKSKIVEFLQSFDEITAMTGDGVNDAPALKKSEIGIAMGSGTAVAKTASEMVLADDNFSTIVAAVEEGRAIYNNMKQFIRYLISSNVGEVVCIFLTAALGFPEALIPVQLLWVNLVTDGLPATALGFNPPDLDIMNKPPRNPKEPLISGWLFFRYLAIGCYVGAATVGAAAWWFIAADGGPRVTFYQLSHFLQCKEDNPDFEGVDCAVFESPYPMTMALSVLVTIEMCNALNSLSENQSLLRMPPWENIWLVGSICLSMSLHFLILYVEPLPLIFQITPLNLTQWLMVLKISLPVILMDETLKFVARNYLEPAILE
- EXPERIMENT_NOTES: Oxalate-supported Fluo-4 Ca2+-uptake (Ca2+-transport) assay in pig cardiac SR (pCSR) vesicles
- Format: biochemical
- SETUP_CONDITIONS: activators, categories activate / uncouple / inhibit
REPORTED_METRIC: Effect on Ca2+-uptake (category, Fig. 4A)

Examples from the recorded data:
>  <COMPOUND>
O=C(c1cc(COc2ccc3c(c2)CCCC3)on1)N1CCC(c2ccncc2)CC1 [Compound 3]

>  <TESTED_TARGET>
SERCA2a (Sus scrofa)

>  <OBSERVED_RESULT>
inhibit

$$$$
>  <COMPOUND>
O=C(c1cc(COc2ccc3ncccc3c2)on1)N1CCC(c2ccncc2)CC1 [Compound 2]

>  <TESTED_TARGET>
SERCA2a (Sus scrofa)

>  <OBSERVED_RESULT>
uncouple

$$$$
>  <COMPOUND>
Cc1cnc(C)c(N2CCN(C(=O)c3cc(COc4ccc5ncccc5c4)on3)CC2)n1 [Compound 1]

>  <TESTED_TARGET>
SERCA2a (Sus scrofa)

>  <OBSERVED_RESULT>
inhibit

$$$$
>  <COMPOUND>
c1ccc(-c2cc(CN3CCN(c4ncnc5ccccc45)CC3)on2)cc1 [Compound 4]

>  <TESTED_TARGET>
SERCA2a (Sus scrofa)

>  <OBSERVED_RESULT>
uncouple

$$$$

Pending compound:
INPUT: Please give measured Effect on Ca2+-uptake (category, Fig. 4A) of the following entry: CC1Cc2cc(CNC(=O)c3cc(C(C)C)nn3C)ccc2O1 (stereo not drawn) [Compound 9]
OUTPUT: uncouple
